Values compiled from ChEMBL document CHEMBL4387722.

Record: pIC50 reported on HSP60/HSP10 (Homo sapiens).
Sequence (P10809 whole entry): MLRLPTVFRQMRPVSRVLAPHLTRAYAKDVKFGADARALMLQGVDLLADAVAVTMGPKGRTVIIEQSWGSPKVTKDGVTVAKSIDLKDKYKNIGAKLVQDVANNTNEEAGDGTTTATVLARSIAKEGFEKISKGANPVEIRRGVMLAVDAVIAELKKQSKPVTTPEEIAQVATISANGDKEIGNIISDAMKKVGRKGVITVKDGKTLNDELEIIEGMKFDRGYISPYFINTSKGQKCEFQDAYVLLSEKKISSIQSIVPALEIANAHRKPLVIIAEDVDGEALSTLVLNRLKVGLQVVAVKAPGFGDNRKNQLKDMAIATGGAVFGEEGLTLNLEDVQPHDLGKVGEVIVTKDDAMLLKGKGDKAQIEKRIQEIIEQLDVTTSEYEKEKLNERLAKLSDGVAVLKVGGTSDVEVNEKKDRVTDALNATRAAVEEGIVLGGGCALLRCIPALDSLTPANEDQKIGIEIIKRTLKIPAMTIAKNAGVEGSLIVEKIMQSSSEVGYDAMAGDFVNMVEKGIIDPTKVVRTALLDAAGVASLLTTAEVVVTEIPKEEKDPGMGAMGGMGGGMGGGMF
Sequence (P61604 whole entry, further chain): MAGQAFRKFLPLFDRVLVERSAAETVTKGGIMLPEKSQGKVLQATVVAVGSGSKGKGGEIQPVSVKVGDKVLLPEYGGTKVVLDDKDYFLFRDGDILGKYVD
In simple prose, pIC50 is minus the logarithm base ten of a concentration in moles per litre.

Please review the entries below; each comes with its answer.
{"smiles structure": "NCc1ccc(S(=O)(=O)Nc2ccc3oc(-c4ccc(NS(=O)(=O)c5ccc(Cl)s5)cc4)nc3c2)cc1", "pIC50": 4.43}
{"smiles structure": "O=S(=O)(Nc1ccc2oc(-c3ccccc3)nc2c1)c1ccc(Cl)s1", "pIC50": 4.15}
{"smiles structure": "O=S(=O)(Nc1ccc(-c2nc3ccccc3o2)cc1)c1ccccc1C(F)(F)F", "pIC50": 4.13}
{"smiles structure": "O=S(=O)(Nc1ccc(-c2nc3cc(NS(=O)(=O)c4ccc(F)cc4)ccc3o2)cc1)c1ccc(F)cc1", "pIC50": 4.17}
{"smiles structure": "O=S(=O)(Nc1ccc(-c2nc3ccccc3o2)cc1)c1ccc(Cl)cc1", "pIC50": 4.21}

Task: Check HSP60/HSP10 (Homo sapiens) data and give pIC50 for O=[N+]([O-])c1cc(S(=O)(=O)Nc2ccc3oc(-c4ccccc4)nc3c2)ccc1Cl .
Result: 4.77

Task: Check HSP60/HSP10 (Homo sapiens) data and give pIC50 for O=S(=O)(Nc1ccc(-c2nc3cc(NS(=O)(=O)c4cccs4)ccc3o2)cc1)c1cccs1 .
Result: 4.40

Task: Check HSP60/HSP10 (Homo sapiens) data and give pIC50 for COc1cccc(S(=O)(=O)Nc2ccc(-c3nc4ccccc4o3)cc2)c1 .
Result: 4.10

Task: Check HSP60/HSP10 (Homo sapiens) data and give pIC50 for O=S(=O)(Nc1ccc(-c2nc3ccccc3o2)cc1)c1cccc(C(F)(F)F)c1 .
Result: 4.24

Task: Check HSP60/HSP10 (Homo sapiens) data and give pIC50 for O=S(=O)(Nc1ccc2oc(-c3ccccc3)nc2c1)c1cccs1 .
Result: 4.05

Task: Check HSP60/HSP10 (Homo sapiens) data and give pIC50 for O=S(=O)(Nc1ccc(-c2nc3cc(NS(=O)(=O)c4ccc(O)cc4)ccc3o2)cc1)c1ccc(O)cc1 .
Result: 4.85

* * *

- target system: UniProtKB P17706
- Sequence (P17706 whole entry): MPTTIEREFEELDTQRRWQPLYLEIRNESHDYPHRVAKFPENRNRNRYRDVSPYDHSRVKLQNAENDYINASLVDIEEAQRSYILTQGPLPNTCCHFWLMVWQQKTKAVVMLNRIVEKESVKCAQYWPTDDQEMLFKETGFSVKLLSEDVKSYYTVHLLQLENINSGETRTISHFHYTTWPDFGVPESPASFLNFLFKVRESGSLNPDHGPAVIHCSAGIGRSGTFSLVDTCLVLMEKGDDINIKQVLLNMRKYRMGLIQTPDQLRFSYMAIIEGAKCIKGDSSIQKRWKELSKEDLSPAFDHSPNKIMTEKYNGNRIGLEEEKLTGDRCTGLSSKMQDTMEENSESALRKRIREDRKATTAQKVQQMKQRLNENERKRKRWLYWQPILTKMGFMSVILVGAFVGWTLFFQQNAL
property measured: pIC50
In simple prose, pIC50 is minus the logarithm base ten of a concentration in moles per litre.

{"smiles structure": "O=S(=O)(Nc1ccc(-c2nc3ccccc3o2)cc1)c1ccccc1", "pIC50": 4.18}
{"smiles structure": "O=S(=O)(Nc1ccc2oc(-c3ccc(NS(=O)(=O)c4cccc5ccccc45)cc3)nc2c1)c1ccc(Cl)s1", "pIC50": 4.82}
{"smiles structure": "O=S(=O)(Nc1ccc(-c2nc3cc(NS(=O)(=O)c4ccc(Cl)s4)ccc3o2)cc1)c1ccc2ncsc2c1", "pIC50": 4.96}
{"smiles structure": "O=S(=O)(Nc1ccc(-c2nc3ccccc3o2)cc1)c1ccc(Cl)c(C(F)(F)F)c1", "pIC50": 4.55}
{"smiles structure": "O=S(=O)(Nc1ccc(-c2nc3cc(NS(=O)(=O)c4ccc(Cl)cc4)ccc3o2)cc1)c1ccc(Cl)cc1", "pIC50": 4.72}

Task: Answer with reported pIC50 of O=S(=O)(Nc1ccc(-c2nc3cc(NS(=O)(=O)c4ccccc4C(F)(F)F)ccc3o2)cc1)c1ccccc1C(F)(F)F
Result: 4.66

Task: Answer with reported pIC50 of O=S(=O)(Nc1ccc2oc(-c3ccccc3)nc2c1)c1ccccc1Cl
Result: 4.38
